Experiment: qHTS assay to identify small molecule HDAC inhibitors - cell viability counter screen (AID 1259365); also: % is scaled to controls: 0 for no effect and ±100 for the full control effect; nearly all actives have a fitted effect of over 50% in size
Settings: HCT-116 viability, CellTiter-Glo ATP luminescence, 2 h; series mostly up to 92.4 µM
Activity calls are given as the source filed them. Calls follow the shape of the dose curve; as a rule, active = well fitted cell-killing curve with a large enough effect in the repeat runs; inconclusive = weak or mixed curves, or effect the other way; inactive = flat fitted curve, though single readings scatter.
Measure name: activity change, negative = cytotoxicity

INSERT INTO measurements (molecule, data_value) VALUES
  ('Nc1ccc(S(=O)(=O)Nc2ccc(Cl)nn2)cc1', 'inactive'),
  ('CC(C)=CCOC(=O)c1ccccc1', 'inactive'),
  ('CN(C)CCOCCO', 'inactive'),
  ('Cc1c(I)c(=O)n(-c2ccccc2)n1C', 'inactive'),
  ('CCCCCCCCCCl', 'inactive'),
  ('C#CC(C)N(C)C(=O)Nc1ccc(Cl)cc1 (stereo not drawn)', 'inactive'),
  ('COc1ccc(-c2cc(=O)c3c(O)cc(O[C@@H]4O[C@H](CO[C@@H]5O[C@@H](C)[C@H](O)[C@@H](O)[C@H]5O)[C@@H](O)[C@H](O)[C@H]4O)cc3o2)cc1O', 'inactive'),
  ('CC(COC(C)(C)C)OCCCO (stereo not drawn)', 'inactive'),
  ('N[C@@H](CCC(=O)N[C@@H](CS)C(=O)NCC(=O)O)C(=O)O', '2.26% [at 19 µM] (inactive)'),
  ('BrCCCCCBr', 'inactive'),
  ('CCCCCCOC(=O)CC', 'inactive'),
  ('N[C@@H](COP(=O)(O)O)C(=O)O', '0.384% [at 19 µM] (inactive)'),
  ('CC(C)CC(=O)O', 'inactive');
